The binders listed here are annotated with their pKd.
# ASSAY TARGET: recombinant human IL-5 protein (human) (UniProt P05113)
# ASSAY: SPR, human IL-5 immobilized on chip, 1:1 fit
pKd: −log10 of the molar value.
QUANTITY: pKd

{"BINDER": "147D7H2 (murine hybridoma lead antibody) (antibody, V domains shown) VH: EVQLQQSGAELVKPGASVKLSCTASGFNIKDYFIHWVKQRTEQGLEWIGRIDTEDGETKYAPKFQGKATITIDTSSNTAYLYFSSLTSEDTAMYYCARYGNYVAMDYWGQGTSVTVSS VL: QIVLTQSPALMSASPGEKVTMTCSASSSVSYMFWYQQKPSSSPKPWIYLTSKLASGVPARFSGSGSGTSYSLTISSVEAEDAATYYCQQWNSNPYTFGGGTKLEIK", "QUANTITY": "pKd", "LIMIT QUALIFIER": ">", "MEASURED": 10.30}
{"BINDER": "151G3B11 (murine hybridoma lead antibody) (antibody, V domains shown) VH: EVHLQQSGAELVKPGASVKLSCTASGFNIKDYYMHWVKQRTEQGLEWIGRIDPEDGETKYAPKFQGQATITADTSSNTANLQLSSLTSEDTAVYYCARYGNFPDYWGPGTTLTVSS VL: QIVLTQSPALMSASPGEKVTMTCSASSSVSYMYWYQQKPRSSPKPWIYLTSKLASGVPARFSGSGSGTSYSLTISSMEAEDAATYYCQQWNSNPYTFGGGTKLEIK", "QUANTITY": "pKd", "LIMIT QUALIFIER": "=", "MEASURED": 10.73}
